Source listed as ChEMBL document CHEMBL2034972.

# Protocol notes: Selectivity index, ratio of IC50 for rat L6 cells to IC50 for axenic amastigote stage of Leishmania donovani MHOM/ET/67/L82
# Type: toxicity, cell-based
# Test conditions: read-out: Ratio IC50
Task for the reader: assign each of the following molecules its reported selectivity ratio.
Give bare numbers.

Field: example entries. Status: answers known.
In [3]: df
Out[3]:
                              chem_smiles  reported_measurement
0     CCc1ccc(C(=O)N(C)C(=O)c2ccccc2O)cc1                     1
1  CC(C)(C)c1ccc(C(=O)NC(=O)c2ccccc2O)cc1                    17
2            CCc1ccc(NC(=O)Nc2ccccc2O)cc1                   2.6
3        COc1ccc(C(=O)NC(=O)c2ccccc2O)cc1                    23
4         Cc1ccc(C(=O)NC(=O)c2ccccc2O)cc1                    14

Provide selectivity ratio values for the following items, in order.
1. Cc1occc1C(=O)NC(=O)c1ccccc1O
2. O=C(NC(=O)c1ccccc1O)c1ccc(F)cc1

Reply |
7.8
23

* * *

# Protocol notes: Selectivity index, ratio of IC50 for rat L6 cells to IC50 for chloroquine and pyrimethamine-resistant Plasmodium falciparum K1
# Assay type: toxicity, cell-based
# Test conditions: read-out: Ratio IC50
Outcome measure: selectivity ratio
Give bare numbers.

Use the examples below as a reference point.
In [3]: df
Out[3]:
                                chem_smiles  reported_measurement
0       O=C(NC(=O)c1ccccc1O)c1ccc2c(c1)OCO2                   5.6
1         O=C(NC(=O)c1ccccc1O)c1cccc(CCl)c1                   0.4
2        CCc1ccc(NC(=O)CC(=O)Nc2ccccc2O)cc1                   1.3
3           Nc1ccc(C(=O)NC(=O)c2ccccc2O)cc1                    10
4       CCCCOc1ccc(C(=O)NC(=O)c2ccccc2O)cc1                    50
5    CC(C)(C)c1ccc(C(=O)NC(=O)c2ccccc2O)cc1                    80
6       CCc1ccc(C(=O)N(C)C(=O)c2ccccc2O)cc1                  0.33
7  O=C(NC(=O)c1ccccc1O)c1ccc(OCc2ccccc2)cc1                    16
8           Cc1ccc(C(=O)NC(=O)c2ccccc2O)cc1                    33
9        O=C(NC(=O)c1ccccc1O)c1ccc2ccccc2c1                    94

For every item below, please supply its selectivity ratio.
1. CCc1ccc(C(=O)n2c(=O)oc3ccccc3c2=O)cc1
2. CCc1ccc(NC(=O)NC(=O)c2ccccc2O)cc1
3. N#Cc1ccc(C(=O)NC(=O)c2ccccc2O)cc1
4. COc1ccc(C(=O)NC(=O)c2ccccc2O)cc1
5. CCOc1ccc(C(=O)NC(=O)c2ccccc2O)cc1

Reply |
3.7
2.8
3.9
24
17

State recorded selectivity ratio for all listed molecules.
1. O=C(NC(=O)c1ccccc1O)c1ccccc1O
2. O=C(NC(=O)c1ccccc1O)c1ccc([N+](=O)[O-])cc1
3. O=C(NC(=O)C1CCCCC1)c1ccccc1O

Reply |
1: 36; 2: 2.4; 3: 4.4

For each entry beneath this line, provide reported selectivity ratio.
1. O=C(NC(=O)c1ccccc1O)c1ccc(F)cc1
2. CCc1ccc(NC(=O)Nc2ccccc2O)cc1
3. COc1cc(C(=O)NC(=O)c2ccccc2O)cc(OC)c1OC
4. CCc1ccc(C(=O)NNC(=O)c2ccccc2O)cc1
5. CCc1ccc(C(=O)Nc2cn(C(C)=O)c3ccccc23)cc1
6. CN(C)c1ccc(C(=O)NC(=O)c2ccccc2O)cc1
7. COc1ccc2cc(C(=O)NC(=O)c3ccccc3O)ccc2c1
8. Cc1occc1C(=O)NC(=O)c1ccccc1O

Reply |
25
4.6
26
0.18
1
110
57
3.4

Below is a list of molecules. For each, state its recorded selectivity ratio.
1. CC(C)c1ccc(C(=O)NC(=O)c2ccccc2O)cc1
2. CCc1ccc(C(=O)NC(=S)c2ccccc2O)cc1
3. O=C(NC(=O)c1ccc(Cl)cc1Cl)c1ccccc1O
4. COC(=O)c1ccc(C(=O)NC(=O)c2ccccc2O)cc1

Reply |
1. 12
2. 4.1
3. 4.4
4. 14

* * *

# Test system: Plasmodium falciparum
# Protocol notes: Antimalarial activity against chloroquine and pyrimethamine-resistant Plasmodium falciparum […] assessed as [3H]-hypoxanthine incorporation after 48 hrs by liquid scintillation counting
# Type: functional, organism-based
Outcome measure: IC50 (mg/L)
Give bare numbers, in mg/L.

>>> df
                              chem_smiles  scale_unit  reported_measurement
0  COc1cc(C(=O)NC(=O)c2ccccc2O)cc(OC)c1OC        mg/L                  0.78
1           O=C(NC(=O)c1ccccc1O)c1ccccc1O        mg/L                   1.1
2   CCc1ccc(C(=O)n2c(=O)oc3ccccc3c2=O)cc1        mg/L                   6.9

Turning now to a further molecule:
Ask | What value of IC50 has been reported for the following molecule? Cc1ccc(C(=O)NC(=O)c2ccccc2O)cc1
Reply | 1.4

* * *

# Protocol notes: Selectivity index, ratio of IC50 for rat L6 cells to IC50 for trypomastigotes of Trypanosoma brucei rhodesiense STIB 900
# Type: toxicity, cell-based
# Test conditions: read-out: Ratio IC50
Assignment: determine reported selectivity ratio for the given compounds.
One number for each entry.

In the examples that follow, each entry is paired with its recorded selectivity ratio.
In [3]: df
Out[3]:
                                chem_smiles  reported_measurement
0         CCc1ccc(NC(=O)NC(=O)c2ccccc2O)cc1                     2
1             O=C(NC(=O)c1ccccc1O)c1ccccc1O                  0.63
2              Cc1occc1C(=O)NC(=O)c1ccccc1O                  0.33
3  O=C(NC(=O)c1ccccc1O)c1ccc(OCc2ccccc2)cc1                     1

Batch: selectivity ratio for all items listed.
1. CCc1ccc(C(=O)n2c(=O)oc3ccccc3c2=O)cc1
2. Nc1ccc(C(=O)NC(=O)c2ccccc2O)cc1

Reply |
1: 0.31; 2: 0.84

* * *

# Protocol notes: Selectivity index, ratio of IC50 for rat L6 cells to IC50 for intracellular amastigote stage of Trypanosoma cruzi Tulahuen C2C4
# Format: toxicity, cell-based
# Test conditions: read-out: Ratio IC50
Hi there, I'd appreciate the recorded selectivity ratio for every entry that follows.
Answers are plain numbers.

In [3]: df
Out[3]:
                           chem_smiles  reported_measurement
0    CCc1ccc(NC(=O)NC(=O)c2ccccc2O)cc1                  0.95
1  CC(C)c1ccc(C(=O)NC(=O)c2ccccc2O)cc1                   9.5
2         CCc1ccc(NC(=O)Nc2ccccc2O)cc1                   1.4
3    N#Cc1ccc(C(=O)NC(=O)c2ccccc2O)cc1                  0.55
4   O=C(NC(=O)c1ccc(Cl)cc1Cl)c1ccccc1O                   1.1

For each entry beneath this line, provide reported selectivity ratio.
1. Cc1ccc(C(=O)NC(=O)c2ccccc2O)cc1
2. O=C(NC(=O)c1ccccc1O)c1ccc(OCc2ccccc2)cc1
3. CCOc1ccc(C(=O)NC(=O)c2ccccc2O)cc1
4. CCCCOc1ccc(C(=O)NC(=O)c2ccccc2O)cc1
5. O=C(NC(=O)c1ccccc1O)c1ccc2ccccc2c1
6. O=C(NC(=O)c1ccccc1O)c1cccc(CCl)c1
7. Cc1occc1C(=O)NC(=O)c1ccccc1O

Reply |
1.2
15
4.1
1.2
2.4
0.1
0.44

Required: selectivity ratio, one value per compound below.
1. COc1cc(C(=O)NC(=O)c2ccccc2O)cc(OC)c1OC
2. COc1ccc(C(=O)NC(=O)c2ccccc2O)cc1
3. O=C(NC(=O)c1ccccc1O)c1ccc([N+](=O)[O-])cc1

Reply |
1. 0.51
2. 1.3
3. 0.94

* * *

# System: Plasmodium falciparum
# Protocol notes: Antimalarial activity against chloroquine and pyrimethamine-resistant Plasmodium falciparum […] assessed as [3H]-hypoxanthine incorporation after 48 hrs by liquid scintillation counting
# Type: functional, organism-based
Give IC50 for every item shown.

                               chem_smiles    experimental_target  reported_measurement
0       CCc1ccc(NC(=O)CC(=O)Nc2ccccc2O)cc1  Plasmodium falciparum              12 µg/mL
1        CCOc1ccc(C(=O)NC(=O)c2ccccc2O)cc1  Plasmodium falciparum               1 µg/mL
2  O=C(NC(=O)c1ccccc1O)c1ccc(OC(F)(F)F)cc1  Plasmodium falciparum              22 µg/mL
3             Cc1occc1C(=O)NC(=O)c1ccccc1O  Plasmodium falciparum             4.7 µg/mL
4       O=C(NC(=O)c1ccc(Cl)cc1Cl)c1ccccc1O  Plasmodium falciparum              14 µg/mL
5      CC(C)c1ccc(C(=O)NC(=O)c2ccccc2O)cc1  Plasmodium falciparum             1.5 µg/mL
6         CCc1ccc(C(=O)NC(=O)c2ccccc2O)cc1  Plasmodium falciparum             5.6 µg/mL
7          O=C(NC(=O)c1ccccc1O)c1ccc(F)cc1  Plasmodium falciparum             1.5 µg/mL
8         COc1ccc(C(=O)NC(=O)c2ccccc2O)cc1  Plasmodium falciparum             1.6 µg/mL
9          Nc1ccc(C(=O)NC(=O)c2ccccc2O)cc1  Plasmodium falciparum             3.9 µg/mL

// input: 4 molecules below; output: IC50 for each
1. COc1ccc2cc(C(=O)NC(=O)c3ccccc3O)ccc2c1
2. O=C(NC(=O)c1ccccc1O)c1ccc([N+](=O)[O-])cc1
3. O=C(NC(=O)c1ccccc1O)c1ccc(-c2ccccc2)cc1
4. CCc1ccc(C(=O)Nc2cn(C(C)=O)c3ccccc23)cc1

Reply |
0.98 µg/mL
22 µg/mL
3.9 µg/mL
23 µg/mL

Hi! Can you tell me IC50 for each of these molecules?
1. CCc1ccc(C(=O)NNC(=O)c2ccccc2O)cc1
2. CS(=O)(=O)c1ccc(C(=O)NC(=O)c2ccccc2O)cc1
3. CCc1ccc(-c2noc(-c3ccccc3O)n2)cc1
4. CCc1ccc(C(=O)NC(=S)c2ccccc2O)cc1

Reply |
1: 27 µg/mL; 2: 38 µg/mL; 3: 27 µg/mL; 4: 4.2 µg/mL

Please give IC50 for each item listed below.
1. CCCCOc1ccc(C(=O)NC(=O)c2ccccc2O)cc1
2. O=C(CCCCCCC(=O)Nc1ccc(C(=O)NC(=O)c2ccccc2O)cc1)NO
3. COC(=O)CCC(=O)Nc1ccc(C(=O)NC(=O)c2ccccc2O)cc1
4. O=C(NC(=O)c1ccccc1O)c1ccc(N2CCOCC2)cc1
5. N#Cc1ccc(C(=O)NC(=O)c2ccccc2O)cc1
6. CCc1ccc(NC(=O)NC(=O)c2ccccc2O)cc1
7. CCc1ccc(C(=O)N(C)C(=O)c2ccccc2O)cc1

Reply |
1. 0.26 µg/mL
2. 3.5 µg/mL
3. 21 µg/mL
4. 0.18 µg/mL
5. 14 µg/mL
6. 26 µg/mL
7. 28 µg/mL
